Numbers sourced from patent US10005846.

Measured koff by item
tested-system: T1, human transglutaminase type 2 (TG2) (human, UniProt P21980 1-687)
T1 construct: Recombinant full-length human TG2 (Zedira; cat; T002 in the Biacore work); Also used here for the endogenous TG2 of HepG2 lysate and HK-2 cells; also called hTG2; rhTG2
T1 sequence: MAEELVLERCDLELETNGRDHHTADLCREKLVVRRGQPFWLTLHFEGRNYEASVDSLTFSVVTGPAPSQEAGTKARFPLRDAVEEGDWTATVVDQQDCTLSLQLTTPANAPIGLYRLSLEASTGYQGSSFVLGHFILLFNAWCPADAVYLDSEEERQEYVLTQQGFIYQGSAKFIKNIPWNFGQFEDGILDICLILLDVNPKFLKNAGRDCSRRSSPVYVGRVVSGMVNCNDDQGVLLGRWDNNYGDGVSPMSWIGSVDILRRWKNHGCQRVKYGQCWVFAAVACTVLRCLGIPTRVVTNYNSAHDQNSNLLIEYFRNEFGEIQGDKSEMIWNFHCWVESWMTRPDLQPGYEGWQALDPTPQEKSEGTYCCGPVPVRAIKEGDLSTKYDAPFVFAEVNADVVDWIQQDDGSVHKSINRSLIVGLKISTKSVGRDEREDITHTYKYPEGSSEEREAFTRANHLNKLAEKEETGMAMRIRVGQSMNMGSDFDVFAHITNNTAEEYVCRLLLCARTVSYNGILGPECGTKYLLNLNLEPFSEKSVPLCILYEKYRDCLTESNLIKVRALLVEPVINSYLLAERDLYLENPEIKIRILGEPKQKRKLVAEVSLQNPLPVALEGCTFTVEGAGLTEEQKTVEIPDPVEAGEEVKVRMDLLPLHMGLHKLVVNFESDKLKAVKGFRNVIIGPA
assay-procedure: SPR (Biacore T200), antibody captured on anti-human IgG1 Fc chip, TG2 injected; calcium condition not marked in the row

binder: cDC001 chimeric antibody (murine DC1 variable regions) (antibody, human IgG1, V domains shown, also called Chimeric DC1) VH: EVQLVESGGGLVKPGGSLKLSCAASGFTLSTHAMSWVRQTPEKRLEWVATISSGGRSTYYPDSVKGRFTISRDNVKNTLYLQLSSLRSEDTAVYFCARLISTYWGQGTTLTVSS VL: DITMTQSPSSIYASLGERVTITCKASQDINSYLTWFQQKPGKSPKILIYLVNRLVDGVPSRFSGSGSGQDYALTISSLEYEDMGIYYCLQYDDFPYTFGGGTKLEIK
koff: < 1e-05 s⁻¹
//
binder: hAB004 (hAB001AE) humanised AB1 antibody (antibody, V domains shown, they were captured by anti-human IgG1 (Fc); also called Heavy Chain version RHA with Light Chain version RKE) VH: EVQLLESGGGLVQPGGSLRLSCAASGFTFSSSAMSWVRQAPGKGLEWVSTISVGGGKTYYPDSVKGRFTISRDNSKNTLYLQMNSLRAEDTAVYYCAKLISLYWGQGTLVTVSS VL: EIVLTQSPSSLSASVGDRVTITCKASQDINSYLTWYQQKPGKAPKLLIYRTNRLFDGVPSRFSGSGSGTDFFFTISSLQPEDFGTYYCLQYDDFPYTFGGGTKLEIK
koff: 2.4e-05 s⁻¹
//
binder: hAB005 (hAB001AJ) humanised AB1 antibody (antibody, V domains shown, captured by anti-human IgG1 (Fc); also called Heavy Chain version RHA with Light Chain version RKJ) VH: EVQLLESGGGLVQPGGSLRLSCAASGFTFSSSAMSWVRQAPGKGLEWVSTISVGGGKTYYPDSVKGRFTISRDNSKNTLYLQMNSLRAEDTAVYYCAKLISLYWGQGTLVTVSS VL: DIQMTQSPSSLSASVGDRVTITCKASQDINSYLTWFQQKPGKAPKSLIYRTNRLFDGVPSRFSGSGSGTDFFLTISSLQPEDFATYYCLQYDDFPYTFGQGTKVEIK
koff: < 1e-05 s⁻¹
//
binder: hBB001BB humanised BB7 antibody (antibody, V domains shown, BB is read as heavy chain hBB001HB (BB7_RHB) with kappa chain hBB001KB (BB7_RKB)) VH: EVQLLESGGGLVQPGGSLRLSCAASGIIFSSSAMSWVRQAPGKGLEWVATISSGGRSTYYPDSVKGRFTVSRDSSKNTLYLQMNSLRAEDTAVYYCAKLISPYWGQGTLVTVSS VL: DIKMTQSPSSLSASVGDRVTITCKASQDINSYLTWFQQKPGKAPKTLIYLTNRLMDGVPSRFSGSGSGQEFLLTISSLQPEDFATYYCLQYVDFPYTFGQGTKVEIK
koff: < 1e-05 s⁻¹
